meta.source: patent US20220289830A1

// reported RBC lysis assay IC50 (P. aeruginosa strain 57/66(O6)) for each item listed
- measured.target: native PcrV on live Pseudomonas aeruginosa (strains O6-57/66, O11-PA103, O1-52/66, O16-177/81) (Pseudomonas aeruginosa)
- assay.comment: cell-based or functional assay
# unit: µg/mL | format: bare number

{"binder": "13-42 mAb (antibody, V domains shown) VH: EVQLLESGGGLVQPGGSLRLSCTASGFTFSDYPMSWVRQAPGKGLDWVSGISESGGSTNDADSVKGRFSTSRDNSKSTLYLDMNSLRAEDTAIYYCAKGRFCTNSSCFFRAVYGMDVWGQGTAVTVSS VL: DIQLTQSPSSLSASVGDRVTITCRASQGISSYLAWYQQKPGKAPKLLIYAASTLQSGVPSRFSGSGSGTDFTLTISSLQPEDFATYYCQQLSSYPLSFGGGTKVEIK", "recorded.number": 0.23}

Inquiry: Value lookup for RBC lysis assay IC50 (P. aeruginosa strain 57/66(O6)); key = 6A10 (antibody, V domains shown, also called optimized anti-PcrV mAb clone 6A10) VH: EVQLLESGGGLVQPGGSLRLSCTASGFTFSDNHMSWVRQAPGKGLDWVSGISESGGSTNYADSVKGRFSTSRDNSKSTLYLDMNSLRAEDTAIYYCAKGRFSTSSSHFFRAVYGMDVWGQGTAVTVSS VL: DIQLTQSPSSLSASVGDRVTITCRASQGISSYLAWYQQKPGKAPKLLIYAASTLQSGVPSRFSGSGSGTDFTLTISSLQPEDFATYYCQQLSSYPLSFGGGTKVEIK
Reply text: 0.04

Inquiry: Value lookup for RBC lysis assay IC50 (P. aeruginosa strain 57/66(O6)); key = 7C1 (antibody, V domains shown, also called optimized anti-PcrV mAb clone 7C1) VH: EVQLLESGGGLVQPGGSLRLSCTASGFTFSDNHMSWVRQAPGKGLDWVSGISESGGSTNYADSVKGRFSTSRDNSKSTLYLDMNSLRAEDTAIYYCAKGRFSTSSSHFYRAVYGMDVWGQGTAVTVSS VL: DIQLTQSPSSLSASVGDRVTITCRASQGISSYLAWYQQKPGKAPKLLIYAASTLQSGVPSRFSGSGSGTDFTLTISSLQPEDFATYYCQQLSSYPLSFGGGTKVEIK
Reply text: 0.1
